# measuredOn: T1, recombinant human CFD, His-tagged (human, UniProt P00746 26-253)
# T1 construct: also called rhCFD-His
# assayText: SPR MX96
Exercise: for every item that follows, state its recorded Kd.
Just the number plus its unit, please.

Quick one: give measured Kd for KCD010 (antibody, V domains shown, chimeric) VH: EVLLQQSGPELVKPGASVKIPCKASGYTFTDYDMDWVKQSHGKSLEWIGHINPNNGGTIYNQKFKGKATLTVDKSSSTAYMELRSLTSEDTAVYYCGTGDFAYWGHGTLVTVSA VL: QIVLTQSPAIMSVSPGEKVTLTCSASSSVSSSYLYWYQKKPGSSPKLWIYSTSNLASGVPARFSGSGSGTSYSLTISSMEAEDAASYFCHQWSSYPPTFGAGTKLELK
2.5 nM

Quick one: give measured Kd for KCD004 (antibody, V domains shown, also called OG2063) VH: EVQLQQSGAELVRPGSSVKMSCKTSGKTFTSHGINWVKQRPGQGLEWIGYIYIGNGYNEYNEKFKGKATLTSDTSSSTAYMQLSSLTFEDSAIYFCVRKAYGNYGFDDWGQGTTLTVSS VL: DIQMTQSPTSLSASLGESVSLTCRASQEISGYLNWLQQKPDGSIKRLIYAASTLDSGVPKRFSGSRSGSDYSLTISSLESEDFADYYCLQYANYPFTFGSGTKLEVK
0.24 nM

From: patent US20180334496A1
